- target.desc: human recombinant DPP IV (Homo sapiens)
- Sequence (P27487 whole entry): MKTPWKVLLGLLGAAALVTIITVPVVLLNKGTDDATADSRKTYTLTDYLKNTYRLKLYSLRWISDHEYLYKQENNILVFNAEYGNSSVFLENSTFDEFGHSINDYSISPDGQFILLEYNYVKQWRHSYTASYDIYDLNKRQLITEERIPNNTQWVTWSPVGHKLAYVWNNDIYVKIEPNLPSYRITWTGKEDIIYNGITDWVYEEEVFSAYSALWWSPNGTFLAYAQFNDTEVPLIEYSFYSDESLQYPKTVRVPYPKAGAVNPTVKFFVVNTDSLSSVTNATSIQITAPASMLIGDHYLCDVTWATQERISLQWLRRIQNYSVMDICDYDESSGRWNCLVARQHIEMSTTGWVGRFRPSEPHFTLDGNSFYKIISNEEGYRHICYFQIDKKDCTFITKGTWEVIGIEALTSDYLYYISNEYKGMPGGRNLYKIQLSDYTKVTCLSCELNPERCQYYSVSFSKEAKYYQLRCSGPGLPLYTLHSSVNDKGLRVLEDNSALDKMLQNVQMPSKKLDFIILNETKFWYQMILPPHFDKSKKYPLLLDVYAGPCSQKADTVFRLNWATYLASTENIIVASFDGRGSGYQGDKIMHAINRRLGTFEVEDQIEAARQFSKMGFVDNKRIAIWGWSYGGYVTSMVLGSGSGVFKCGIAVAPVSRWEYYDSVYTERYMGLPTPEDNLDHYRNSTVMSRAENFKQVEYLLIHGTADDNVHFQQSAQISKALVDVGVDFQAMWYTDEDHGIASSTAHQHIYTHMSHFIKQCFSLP
- measurement.description: In vitro DPP-IV inhibitory action measurement test
- assay.conditions: preincubated 100 to 110 minutes, substrate Gly-Pro-MCA 40 μmol/L
Where a name gives a salt, the structure may show the parent alone.
quantity.name: IC50 (nM)
Provide the reading as a plain figure in nM.

Kindly note the recorded IC50 for Cn1c(=O)c2c(cc(N3CCC[C@@H](N)C3)n2Cc2cc(F)ccc2Cl)n(C)c1=O [Compound A, monohydrochloride hemihydrate] , which is 0.71
